Test system: bloodstream form T. brucei Lister 427
experimental-details: ATP–bioluminescence-based bloodstream form T. brucei cell viability assay
details: Trypanosoma brucei, 48 h, read-out: Tb427 EC50
Class (by EC50) -- class 1 = under 4 µM, class 2 = from 4 µM up to 10 µM, class 3 = 10 µM and over

INPUT: Lab log: Cc1cc(Nc2cc(Br)c(F)c(Br)c2)nc(N)n1 [Compound 63] — assign EC50 category
OUTPUT: class 2

INPUT: Lab log: Cc1ccc(-c2cc(Cl)cc(Nc3cc(C)nc(N)n3)c2)cc1 [Compound 94] — assign EC50 category
OUTPUT: class 2

---

Exercise: state measured EC50 for each of the compounds provided.
Test system: bloodstream form T. brucei Lister 427
experimental-details: ATP–bioluminescence-based bloodstream form T. brucei cell viability assay
details: Trypanosoma brucei, 48 h, read-out: Tb427 EC50
Give bare numbers, in µM.

Parameters: items (list). Returns: EC50 for each item.
1. Cc1cc(Nc2cc(Cl)cc(-c3cncs3)c2)nc(N)n1
2. Cc1cc(Nc2cc(Cl)c(N3CCOCC3)c(Cl)c2)nc(N)n1
3. Cc1cc(Nc2cc(Cl)cc(-c3ccc(O)cc3)c2)nc(N)n1
4. Cc1cc(Nc2cc(-c3ccccc3)cc(-c3ccccc3)c2)nc(N)n1

OUTPUT:
1: 3.6; 2: 18; 3: 9.7; 4: 1.5
